These measurements were taken from patent US10526357B2.

The reader will find reported viability at 50 µM values listed item by item below.
Test system: H460 non small lung carcinoma cells
Assay: CellTiter Glo (CTG) cell viability assay, in vitro cell killing, H460
Type: cell-based
Settings: Homo sapiens, NCI-H460, 50 μM, 24 h treatment, 0.5% serum and 0.05% DMSO, relative to untreated control, read-out: % avg live cells @ 50 μM (% Viable Cells Remaining)
// unit must come after the numeric part

- COMPOUND: "COCCCCCC(CCSCc1ccccc1)SCc1ccccc1 (stereo not drawn) [B]"
  viability at 50 µM: "97%"
- COMPOUND: "O=C(O)CCOCC(CCSCc1ccccc1)SCc1ccccc1 (stereo not drawn) [G]"
  viability at 50 µM: "102%"
- COMPOUND: "CCCCCCC(CCSCc1ccccc1)SCc1ccccc1 (stereo not drawn) [A]"
  viability at 50 µM: "89%"

Task: What measured viability at 50 µM is associated with N#CCCCCC(CCSCc1ccccc1)SCc1ccccc1 (stereo not drawn) [C] on H460 non small lung carcinoma cells?
Output: 69.8%

Task: What measured viability at 50 µM is associated with c1ccc(CSCCC(CCCCc2nn[nH]n2)SCc2ccccc2)cc1 (stereo not drawn) [D] on H460 non small lung carcinoma cells?
Output: 4.1%

Task: What measured viability at 50 µM is associated with O=S(=O)(O)CCCCC(CCSCc1ccccc1)SCc1ccccc1 (stereo not drawn) [E] on H460 non small lung carcinoma cells?
Output: 0%
